# Assay Overview: small-molecule microarray binders of probe aWnt5a, primary screen, biochemical, biotinylated probe, 635/667 nm fluorescence (AID 1113);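 note: score merges 667 nm fluorescence intensity with signal-to-noise per printed feature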
# Protocol Conditions: higher = more signal
Binary call on composite z-score: T from -0.09 upward, F beneath that.

Prompt line: # check: composite z-score of C=CCNC(=O)[C@H]1[C@@H]2C(=O)O[C@@H](c3ccccc3)[C@@H](c3ccccc3)N2[C@@H](c2ccc(OCCO)cc2)[C@]12C(=O)Nc1ccc(C#CCNC(N)=O)cc12 is greater than or equal to -0.09
Response line: T

Prompt line: # check: composite z-score of COC(=O)[C@@]1(Cc2ccc(OC)cc2)[C@H]2c3cc(C(=O)N4CCCC4)n(Cc4ccc(S(C)(=O)=O)cc4)c3C[C@H]2CN1C(=O)c1ccccc1 is greater than or equal to -0.09
Response line: T

Prompt line: # check: composite z-score of COCC1=C2[C@@H](CCc3ccccc3)OB(O)C[C@@H]2[C@@H]2C(=O)N(C)C(=O)[C@@H]2C1 is greater than or equal to -0.09
Response line: T

Prompt line: # check: composite z-score of CCOC(=O)C[C@H]1[C@H](OC(=O)c2ccc(C(=O)c3ccccc3)cc2)[C@@H](NC(=O)CC(C)C)c2cc(OCCCO)ccc2N1C(=O)Cc1ccc(OC)cc1 is greater than or equal to -0.09
Response line: T

Prompt line: # check: composite z-score of C=C[C@@H](OC)[C@H](OC(=O)Nc1ccc(OC)cc1)c1ccc(OC)c(O)c1 is greater than or equal to -0.09
Response line: F

Prompt line: # check: composite z-score of COc1ccc([Si](C)(C)[C@@H]2[C@@H](CCn3cc([C@H](O)c4ccccc4)nn3)O[C@]3(C(=O)N(Cc4cccc(N5C(=O)c6cccc7cccc5c67)c4)c4ccccc43)[C@H]2C)cc1 is greater than or equal to -0.09
Response line: F
